Ref: the NIST ThermoML archive (doi:10.1021/je049895b)

Please provide measured viscosity for the entries that follow.
- CONDITIONS USED: 303.15 K; 101.33 kPa; Liquid; Capillary tube (Ostwald / Ubbelohde) method
// note: answer is a bare numeric in mPa·s

Entry under review: C1CCCC1 . Reported viscosity? 0.394

Name the recorded viscosity for CC1CCCCC1 . 0.637

Bench note: what viscosity did CCOC(=O)OCC [diethyl carbonate] show? 0.702

Recorded viscosity for COC(=O)OC [dimethyl carbonate] , please? 0.549

---

Give measured viscosity for each item. Keep answers brief.
- CONDITIONS USED: 298.15 K; 101.33 kPa; Liquid; Capillary tube (Ostwald / Ubbelohde) method
Field format: number, assumed mPa·s, no unit text.

Please look up its viscosity: COC(=O)OC [dimethyl carbonate] 0.584

# viscosity lookup, item CCOC(=O)OCC [diethyl carbonate] 0.75

Which viscosity reading was recorded for the molecule C1CCCC1 [cyclopentane] ? 0.415

Name the recorded viscosity for CC1CCCCC1 [methylcyclohexane] . 0.681

---

- CONDITIONS USED: 293.15 K; 101.33 kPa; Liquid; Capillary tube (Ostwald / Ubbelohde) method
QUANTITY MEASURED: viscosity (mPa·s)
Just the number in mPa·s, nothing appended.

For the compound shown here, CC1CCCCC1 , give the reported viscosity. 0.729

What value of measured viscosity is listed for C1CCCC1 ? 0.438

I would be grateful if you could share the reported viscosity for CCOC(=O)OCC [diethyl carbonate] . 0.809

I have this compound here, COC(=O)OC [dimethyl carbonate] , and I need its recorded viscosity. 0.623

---

So I've got a bunch of compounds here, and I need their speed of sound values.
- CONDITIONS USED: 308.15 K; 101.33 kPa; Liquid
All answers are understood in m/s, so give the number only.

Look up speed of sound for this compound: C1CCCC1 1154

Requested read-out: speed of sound. Entry: CC1CCCCC1 1172

Which speed of sound value is on record for CCOC(=O)OCC [diethyl carbonate] ? 1136

Find the recorded speed of sound belonging to COC(=O)OC [dimethyl carbonate] and report it. 1155
